All values here come from paper PMC11437124.

measured_on: human TREM2 extracellular domain (ECD) (Homo sapiens, UniProt Q9NZC2)
Sequence (Q9NZC2 19-174): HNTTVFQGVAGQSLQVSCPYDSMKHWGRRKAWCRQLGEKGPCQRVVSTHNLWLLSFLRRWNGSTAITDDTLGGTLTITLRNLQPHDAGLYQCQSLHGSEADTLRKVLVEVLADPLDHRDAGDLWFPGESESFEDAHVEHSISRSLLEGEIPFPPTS
observable: binding result

Solved cases below.
R18-11-08 (antibody, V domains shown) VH: AVQLVESGGGLVQPKESLKISCAASGFTFSNAAMYWVRQAPGKGLEWVARIRTKPNNYATYYADSVKGRFTISRDDSKSMVYLQMDNLKTEDTAMYYCTAAYYSGPFAYWGQGTLVTVSS VL: DIVMTQSPSSLAVSAGETVTIDCKSSQSLLYSGNQKTYLAWYQQKPGQSPKLLIYWASTRQSGVPDRFIGSGSGTDFTLTISSVQAEDLAIYYCQQYYDTPLTFGSGTKLEIK; binds
R18-13-28 (antibody, V domains shown) VH: AVQLVESGGGLVQPKESLKISCAASGFTFSNAAMYWVRQAPGKGLEWVARIRTKTNNYATNYADSVKGRFTISRDDSKSMVYLQMDNLKTEDTAMYYCSAARGGWYLWLDYWGQGVMVTVAS VL: DIVMTQSPSSLAVSAGETVTIDCKSSQSLLYSGNQKTYLAWYQQKPGQSPKLLIYWASTRQSGVPDRFIGSGSGTDFTLTISSVQAEDLAIYYCQQYYDTPLTFGSGTKLEIK; binds
R18-12-23 (antibody, V domains shown) VH: AVQLVESGGGLVQPKESLKISCAASAFSFSNVAMYWVRQAPGKGLEWIARIRTKPNNYATYYADSVKGRFTISREDSKSMVYLQMDNLKTEDTATYYCTADNYPGGGFRYWGQGTLVTVSS VL: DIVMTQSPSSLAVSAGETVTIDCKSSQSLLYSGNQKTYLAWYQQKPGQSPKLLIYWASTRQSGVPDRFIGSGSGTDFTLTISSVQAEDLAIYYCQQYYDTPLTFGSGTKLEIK; binds
R18-12-24 (antibody, V domains shown) VH: AVQLVESGGGLVQPKESLKISCAASGFTFSNAAMYWVRQAPGKGLEWVARIRTKPNNYATYYADSVKGRFTISRDDSKSMVYLQMDNLKTEDTAMYYCTADYSSYIRFAYWGQGTLVTVSS VL: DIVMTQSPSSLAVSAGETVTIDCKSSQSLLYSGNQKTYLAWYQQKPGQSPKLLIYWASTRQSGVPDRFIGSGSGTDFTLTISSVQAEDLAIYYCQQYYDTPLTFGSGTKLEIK; binds

Okay, next one:
# input For R18-13-27 (antibody, V domains shown) VH: AVQLVESGGGLVQPKESLKISCAASGFTFSNAAMYWVRQAPGKGLEWVARIRTKPNYHATYYADSVKGRFTISRDDSKSMVYLQMDNLKAEDTAIYYCAASVLYTADSLDYWGQGVMVTVSS VL: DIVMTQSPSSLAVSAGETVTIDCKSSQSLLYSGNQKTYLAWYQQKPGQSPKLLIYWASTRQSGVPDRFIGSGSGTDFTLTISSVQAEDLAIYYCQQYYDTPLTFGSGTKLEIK , write its binding result.
# output binds
